Values from the Biogen ADME set (Fang et al. 2023)

metric_name: MDR1-MDCK efflux ratio

Consider the worked cases shown below.
{"compound": "c1cnc(NCc2cccc(-c3cccnc3)c2)nc1", "MDR1-MDCK efflux ratio": 0.571}
{"compound": "COc1ccc2nc3c(cc2c1)CNCCO3", "MDR1-MDCK efflux ratio": 0.504}

I = Nc1nc(-c2ccccc2)c(C(=O)Nc2ccc(Cl)c(Cl)c2)s1
II = CN(Cc1ccc(CO)cc1)Cc1cc(F)c(F)c(F)c1
III = Cc1ccc(-c2ccccc2-c2nc3c(cnn3C3CCN(C)CC3)[nH]2)o1
IV = CN(C)C(=O)C1(Cc2ccccc2-c2ccccc2)CCN(C(=O)C2CCCO2)CC1 (configuration not stated)
Sort the compounds on MDR1-MDCK efflux ratio; start with the lowest figure. Could you list the labels in the order requested? II, I, IV, III

* * *

metric_name: intrinsic clearance, rat liver microsomes (mL/min/kg)

Consider the worked cases shown below.
{"test_smiles": "Cc1cc(N(C)Cc2ccc(N)nc2)nc(-c2ccncc2)n1", "value": 328}
{"test_smiles": "Cc1nnc(NC(=O)c2ccccc2-c2ccc(C(F)(F)F)cc2)s1", "value": 28.3}
{"test_smiles": "O=C(Cc1csc(-c2ccc(F)cc2)n1)N1CCC(n2c(=O)[nH]c3ccccc32)CC1", "value": 2820}
{"test_smiles": "Fc1cccc(CN2CCN(c3ncccn3)CC2)c1", "value": 1120}

P = Cc1cc(C)n2ncc(C(=O)NC3CCCCC3)c2n1
Q = Cc1ccsc1-c1nc(CN(C)CCc2cn[nH]c2)c(C)o1
R = CN(C)c1ccnc2sc3c(=O)n(N4CCCCCC4)cnc3c12
S = Cc1nc(Cl)cc(Nc2ccc3c(c2)N(C)C(=O)CO3)n1
Rank order required: intrinsic clearance, rat liver microsomes, descending. Could you list the labels in the order requested? Q, P, R, S
(Q: 1210 mL/min/kg, P: 166 mL/min/kg, R: 90.9 mL/min/kg, S: 63.2 mL/min/kg)

* * *

Quick reference for intrinsic clearance, human liver microsomes among some molecules

{"test_smiles": "O=C(CCc1ccc2c(c1)OCO2)Nc1cccc2cnccc12", "value": "41.9 mL/min/kg"}
{"test_smiles": "O=c1[nH]nc(CCCN2CCOCC2)n1-c1cccc(Cl)c1", "value": "≤ 4.74 mL/min/kg"}
{"test_smiles": "CC(=O)Nc1cnn(CC2CCN(C)CC2)c1", "value": "≤ 4.74 mL/min/kg"}
{"test_smiles": "Cc1nc(CC(=O)NCc2ccccc2)cs1", "value": "≤ 4.74 mL/min/kg"}
{"test_smiles": "CC(C)c1nc(NCc2cccnc2)n(C)n1", "value": "≤ 4.74 mL/min/kg"}

Quick note, intrinsic clearance, human liver microsomes for N#CC1(NC(=O)c2ccc3c(c2)OCO3)CCCC1 landed at ≤ 4.74 mL/min/kg

Quick note, intrinsic clearance, human liver microsomes for Cc1nc(O)cc(C2CCN(c3cnccn3)CC2)n1 landed at ≤ 4.74 mL/min/kg

Quick note, intrinsic clearance, human liver microsomes for O=c1n(CCn2ccnc2)nnn1-c1cccs1 landed at ≤ 4.74 mL/min/kg

Quick note, intrinsic clearance, human liver microsomes for Cn1c(=O)n(Cc2cccnc2)c(=O)c2ccc(C(F)(F)F)nc21 landed at ≤ 4.74 mL/min/kg

Quick note, intrinsic clearance, human liver microsomes for Cc1ncsc1C(=O)N1C[C@@H]2CCCN(C(=O)c3scnc3C)[C@@H]2C1 landed at ≤ 4.74 mL/min/kg

Quick note, intrinsic clearance, human liver microsomes for CNC(=O)CN1CCCN(C(=O)c2c(C)nn(-c3ccccc3)c2Cl)CC1 landed at ≤ 4.74 mL/min/kg

Quick note, intrinsic clearance, human liver microsomes for Cc1cc(Br)cn(Cc2ccc(C#N)cc2F)c1=O landed at ≤ 4.74 mL/min/kg
